These measurements were taken from PubChem BioAssay (NCI).

experiment: NCI Yeast Anticancer Drug Screen. Data for the bub3 strain (AID 167)
test_parameters: S. cerevisiae bub3 mutant strain, at 50.0 µM, stronger effect = higher value
This is part of a sample that, as a whole, favours compounds with a hit. Of some 79,000 tested, about 15% had one in any assay.
quantity_kind: growth inhibition (%)
# unit: % | format: bare number

* O=C1NC(N2CCCCC2)=N/C1=C\c1ccco1 | -5.65
* COC(=O)C1=C(NC(=O)Nc2ccc(OC)cc2)OC(C)(C)C1c1ccc(Cl)cc1 (configuration not stated) | 24.1
* N#CC1(N=Cc2ccc3c(c2)OCO3)c2ccccc2-c2ccccc21 | 8.55
* Cc1nc2ccc(Cl)cc2c(Cl)c1CCCl | 31.5
* CCOC(=O)C1=C(c2ccccc2)OC(N)=C(C#N)C1c1ccccc1 (configuration not stated) | 25.3
* N#CC1(CCCI)CCCC1 | -2.3

Which growth inhibition reading was recorded for the compound C[N+]1(C)C2C=CCC1CSC2 (configuration not stated) ? 2.75

Requested read-out: growth inhibition. Entry: `Fc1cccc(C(Nc2nncs2)Nc2nncs2)c1` -3.8

Item `Cc1nc(C)c(N2CCN(S(=O)(=O)N(Cc3ccccc3)Cc3ccccc3)CC2)c(=O)[nH]1` has what recorded growth inhibition? -5.65

Value lookup for growth inhibition; key = `Nc1ccc(S(=O)(=O)O)cc1Cl` -10.4

Which growth inhibition value belongs to CCOC1OC(C(O)CO)C(O)C(O)C1O (configuration not stated) ? -7.9

Consider the compound `CC1=NN2C(c3ccc(C)cc3)=CSC2=NC(C)(C)C1` and give its measured growth inhibition. 5

* * *

experiment: NCI Yeast Anticancer Drug Screen. Data for the mec2-1 strain (AID 157)
test_parameters: S. cerevisiae mec2-1 strain, at 50.0 µM, stronger effect = higher value
This is part of a sample that, as a whole, favours compounds with a hit. Of some 79,000 tested, about 15% had one in any assay.
Each entry below carries its recorded growth inhibition.
Numeric only. Scale: %

Below, 3 compounds whose answers are already recorded.
- CCOC(=O)C(CSC(=O)c1ccccc1)NC(=O)OCc1ccccc1 (centres undefined): -3.35
- CC(C)Nc1nc(N)nc(N)n1: -17.6
- CCOC(=O)C1Cc2c([nH]c(=O)[nH]c2=O)OC1c1ccc(OC)cc1 (centres undefined): 7.1

Could you share which growth inhibition value was measured for `Cc1ccc(CCCCCOc2ccc(C3=NCCO3)cc2)s1` ? 22.2

growth inhibition lookup needed for NC(CCCCN=Cc1nc(-c2ccccc2)oc1O)C(=O)O (centres undefined) , thanks. -52.3

State the recorded growth inhibition for this entry: COC(=O)N[C@H](C(=O)O)C(C)O[Si](C)(C)C(C)(C)C (some centres undefined) -14

Please give the measured growth inhibition for this compound: `CC1=NN(C(=O)Cc2ccccc2)C(=O)/C1=C\c1ccc([N+](=O)[O-])cc1` -41.5

Data request, read-out growth inhibition, for `CN(CCC(=O)c1ccc2ccccc2c1)Cc1ccccc1` 3

// query growth inhibition value for entry COc1ccc(N2C(=O)[C@@H]3[C@H](C2=O)c2[nH]c4ccccc4c2C2CCC(C(C)(C)C)C[C@@H]23)cc1 (some centres undefined) 4.1

Entry CCCCCC(CCCC)OC(=O)Nc1ccccc1 (centres undefined) has what growth inhibition? 7.85

For `Nc1nc(-c2ccccc2)[nH]c(=O)n1` , what is its reported growth inhibition? -0.45

Form field: reported growth inhibition of `COc1ccccc1CNCCCCCNCCCCCCCCCCNCCCCCNCc1ccccc1OC` -11.1

Sample COC(=O)/C(=N/O)C(C(=O)OC)C(=O)C(=O)Nc1c(Cl)cc(C)cc1S(=O)(=O)O (centres undefined) — what was its growth inhibition? 4.35

Requested read-out: growth inhibition. Entry: `Cc1nc2nnc(N)n2nc1C` -6.15

* * *

experiment: NCI Yeast Anticancer Drug Screen. Data for the cln2 rad14 strain (AID 165);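 also: 0% = growth equal to vehicle treated cultures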
test_parameters: S. cerevisiae cln2 rad14 strain, at 50.0 µM
This is part of a sample that, as a whole, favours compounds with a hit. Of some 79,000 tested, about 15% had one in any assay. The source made the active and inactive calls. No stated cut-off is given here; in the data, active means growth inhibition above about 70%; inactive means the rest.
Choose the fitting class; nothing outside Yes (active), No (inactive) is accepted.

// known answers, use as guide
* COc1cc2c3c(c1)-c1c(ccc(OC)c1Oc1nnnn1-c1ccccc1)CC3N(C)CC2 (stereo unspecified) | No
* COc1cc(/C=C/C=C2\CC/C(=C\C=C\c3ccc(O)c(OC)c3)C2=O)ccc1O | No

Test call for this molecule, please: `CN(C)CCNc1nnc(NCCN(C)C)c2cc3ccccc3cc12` No

For this molecule, state the assay outcome: O=c1[nH]c(=O)n(C2CC(O)C(CO)O2)cc1OCC1CCCCC1 (stereo unspecified) No

Status in this test for `Nc1cc(Cl)cc2c1nc(NCCO)c1ccccc12` ? Yes

Recorded test outcome, item CC(C)(C)[Si](C)(C)OCCc1ccccc1C1CC2(S(=O)(=O)c3ccccc3)ON1CC2S(=O)(=O)c1ccccc1 (stereo unspecified) No

What was the test verdict on `CCOc1ccc(NC(=O)Nc2cccc(Cl)c2C)cc1` ? No

* * *

experiment: NCI Yeast Anticancer Drug Screen. Data for the mlh1 rad18 strain (AID 175)
test_parameters: S. cerevisiae mlh1 rad18 strain growth inhibition; at 50.0 µM; stronger effect = higher value
Protocol: Growth inhibition of yeast strains with defined genetic alterations is measured as a screen for potential anti-cancer activity. Selected strains with alterations in DNA damage repair or cell cycle control were exposed to compounds and growth inhibition was measured relative to vehicle treated controls. The strain used in this assay is mlh1 rad18
Compounds without any hit were thinned out: in the full panel of roughly 79,000, 15% have a hit. Calls of active or inactive are those of the source. Rule as the data show it: active = growth inhibition above about 70%; inactive = the rest.
growth inhibition reference

Sample records with growth inhibition:
• CC(=O)NC(CCCNC(=O)N(C)N=O)C(=O)NCc1ccccc1 (stereo not drawn) = -13.3% (inactive)
• NC(=O)N/N=C/c1ccc(O)cc1 = -1.5% (inactive)
• COc1ccccc1/C=C1/Sc2scc(CC(=O)Nc3ccccc3)[n+]2C1=O = 24.8% (inactive)

# input molecule: `Cc1ccc([Se](=C(C(=O)c2ccccc2)C(=O)c2ccccc2)c2ccc(C)cc2)cc1` ; wanted: its growth inhibition 54.6% (inactive)

Quick check: growth inhibition of `COC(=O)c1nc(=S)[nH]c(C(=O)OC)c1C(=O)c1ccccc1O` ? 30% (inactive)

* * *

experiment: NCI Yeast Anticancer Drug Screen. Data for the mlh1 rad18 strain (AID 175)
test_parameters: S. cerevisiae mlh1 rad18 strain growth inhibition; at 50.0 µM; stronger effect = higher value
This is part of a sample that, as a whole, favours compounds with a hit. Of some 79,000 tested, about 15% had one in any assay. Active and inactive are the calls of the source. No stated cut-off is given here; in the data, active means growth inhibition above about 70%; inactive means the rest.
quantity_kind: growth inhibition

- CN(C)C(=S)OCC(C)(C)C: -23.6% (inactive)
- Cc1ccc(S(=O)(=O)OCC2OC(C)(C)OC2COS(=O)(=O)c2ccc(C)cc2)cc1 (stereo not drawn): 10.3% (inactive)
- NC1=NC(c2ccccc2O)CC(=O)N1 (stereo not drawn): -6.35% (inactive)
- CCc1ccccc1NC(=O)Nc1cc(C)ccn1: 27.9% (inactive)
- Cc1c(N)nc(C(CC(N)=O)NCC(N)C(N)=O)nc1C(=O)NC(C(=O)NC(C)C(O)C(C)C(=O)NC(C(=O)NCCc1nc(-c2nc(C(=O)NCCC[S+](C)CC(N)=O)cs2)cs1)C(C)O)C(OC1OC(CO)C(O)C(O)C1OC1OC(CO)C(O)C(OC(N)=O)C1O)c1cnc[nH]1 (stereo not drawn): 75.7% (active)
- COC(=O)C1C=CN(N(C)C)C2=C1C(=O)c1c(O)cccc1C2=O (stereo not drawn): 90.2% (active)

Looking for the measured growth inhibition of `Nc1cc(N)[nH]c(=S)n1` , can you help? -2.35% (inactive)

Please look up its growth inhibition: `O=C(Nc1ccc(Cl)cc1)c1ccc(Cl)cc1Cl` -0.15% (inactive)

I would be grateful if you could share the reported growth inhibition for `Clc1ccccc1/C=C/c1ccnnc1` . 12.8% (inactive)

Endpoint output: growth inhibition of `Cc1cc(N(CCC#N)CCC#N)ccc1/C=C1N=C(/C=C/c2ccccc2)N(c2ccc(S(N)(=O)=O)cc2)C\1=O` . Value? -3.9% (inactive)

Please give the measured growth inhibition for this compound: `Cc1cc(Cc2cc(C)c(O)c(CN(C)C)c2)cc(CN(C)C)c1O` -7.05% (inactive)

Look up growth inhibition: CC12CC(=O)OC(C1)C(=O)c1ccccc12 (stereo not drawn) -3.15% (inactive)

Data request, read-out growth inhibition, for `CCOC(=O)NCC1(c2ccccc2)CCN(Cc2ccccc2)CC1` -1.7% (inactive)

Reported growth inhibition for `C/C(=C/C(=O)O)c1ccccc1` : what is it? -1.95% (inactive)

Could you tell me which growth inhibition is on file for `O=C(NCCCCCCNC(=O)c1ccccn1)c1ccccn1` ? -0.8% (inactive)

Please look up its growth inhibition: `N=C(/C(=C/c1cccc2ccccc12)c1ccccc1)c1ccccc1` 13.6% (inactive)
